Below, each of the compounds is paired with its reported melting point value.

Known results for compounds:
Cc1ccc2c(C3=NC(C)(C)C(F)(F)c4ccccc43)cnn2c1
105 to 107 °C
CC1(C)N=C(c2cnc3c(F)cccn23)c2cccc(Cl)c2C1Br (centres unmarked)
213 to 214 °C
CC1(C)N=C(c2cnc3c(F)cccn23)c2cccc(F)c2C1(F)F
145 to 146 °C
Cc1cccn2ncc(C3=NC(C)(C)C(F)(F)c4ccccc43)c12
113 to 114 °C
CC1(C)N=C(c2cnn3cc(Br)ccc23)c2ccccc2C1=O
147 to 149 °C

Lookup: Requested field: melting point. Item: CC1(C)N=C(c2cnc3cc(C#N)ccn23)c2cccc(F)c2C1(C)C
Found: 193 to 194 °C

Lookup: Requested field: melting point. Item: Cc1ccn2c(C3=NC(C)(C)C(F)(F)c4ccccc43)cnc2c1C
Found: 159 to 161 °C

Lookup: Requested field: melting point. Item: CC1(C)Cc2c(Cl)cccc2C(c2cnc3c(F)cccn23)=N1
Found: 122 to 123 °C

Lookup: Requested field: melting point. Item: CC1(C)N=C(c2cnn3cc(C#N)ccc23)c2ccccc2C1(F)F
Found: 191 to 194 °C

Lookup: Requested field: melting point. Item: CC1(C)N=C(c2cnc3c(OC(F)F)cccn23)c2cccc(F)c2C1(C)C
Found: 121 to 122 °C
